Test system: Escherichia coli TOP10
assay-procedure: shrunken log2 fold change of peptide-encoding DNA abundance (4.5 h post-induction vs induction); higher = less antimicrobial activity (less host growth inhibition)
experimental-setup: time post-induction: 4.5 h; library: site-saturation at positions 5, 18, 19, 20
Label Y for high-side shrunken log2 fold change (at or above 0.3) and N for low-side shrunken log2 fold change (below it).

// below: answered sequences
RRIRTRPPRLPRPRPRPRFGPRP | Y
RRIRHRPPRLPRPRPRPWQIPRP | N
RRIRTRPPRLPRPRPRPITCPRP | N
RRIRLRPPRLPRPRPRPWGFPRP | N
RRIRGRPPRLPRPRPRPEIDPRP | Y

Dear colleague, could you confirm whether `RRIRMRPPRLPRPRPRPAEFPRP` has shrunken log2 fold change at or above 0.3?
Y

Dear colleague, could you confirm whether `RRIRIRPPRLPRPRPRPCKFPRP` has shrunken log2 fold change at or above 0.3?
N

Dear colleague, could you confirm whether `RRIRKRPPRLPRPRPRPYWQPRP` has shrunken log2 fold change at or above 0.3?
N

Dear colleague, could you confirm whether `RRIRNRPPRLPRPRPRPRMAPRP` has shrunken log2 fold change at or above 0.3?
Y

Dear colleague, could you confirm whether `RRIRIRPPRLPRPRPRPQFCPRP` has shrunken log2 fold change at or above 0.3?
N

---

Tested on: Escherichia coli TOP10
assay-procedure: shrunken log2 fold change of peptide-encoding DNA abundance (4.5 h post-induction vs induction); higher = less antimicrobial activity (less host growth inhibition)
experimental-setup: time post-induction: 4.5 h; library: site-saturation at positions 5, 18, 19, 20
Label TRUE for high-side shrunken log2 fold change (at or above -0.09) and FALSE for low-side shrunken log2 fold change (below it).

RRIRMRPPRLPRPRPRPRVYPRP | TRUE
RRIRMRPPRLPRPRPRPFRPPRP | FALSE
RRIRRRPPRLPRPRPRPLLGPRP | TRUE
RRIRNRPPRLPRPRPRPGTEPRP | FALSE
RRIRIRPPRLPRPRPRPRAYPRP | FALSE

Dear colleague, could you confirm whether `RRIRARPPRLPRPRPRPWITPRP` has shrunken log2 fold change at or above -0.09?
FALSE

Dear colleague, could you confirm whether `RRIRARPPRLPRPRPRPVQWPRP` has shrunken log2 fold change at or above -0.09?
TRUE

---

Tested on: Escherichia coli TOP10;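 also: peptides expressed intracellularly from a pBAD plasmid library in pooled LB shake-flask culture, induced with 0.3% L-arabinose, DNA abundance read by NGS, three biological replicates, DESeq2 with apeglm shrinkage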
assay-procedure: shrunken log2 fold change of peptide-encoding DNA abundance (4.5 h post-induction vs induction); higher = less antimicrobial activity (less host growth inhibition)
experimental-setup: time post-induction: 4.5 h; library: site-saturation at positions 5, 18, 19, 20
Label Fulfilled for high-side shrunken log2 fold change (at or above -0.002) and Not fulfilled for low-side shrunken log2 fold change (below it).

// below: answered sequences
RRIRPRPPRLPRPRPRPKEWPRP | Fulfilled
RRIRTRPPRLPRPRPRPMAWPRP | Fulfilled
RRIRWRPPRLPRPRPRPQHMPRP | Not fulfilled
RRIRYRPPRLPRPRPRPDNEPRP | Not fulfilled
RRIRFRPPRLPRPRPRPICTPRP | Not fulfilled
RRIRERPPRLPRPRPRPMPWPRP | Fulfilled
RRIRVRPPRLPRPRPRPVNIPRP | Not fulfilled
RRIRHRPPRLPRPRPRPTLLPRP | Not fulfilled

Kindly consider the entry below.
Dear colleague, could you confirm whether `RRIRARPPRLPRPRPRPPTVPRP` has shrunken log2 fold change at or above -0.002?
Fulfilled
